molecular target: Genome polyprotein (Hepatitis C virus genotype 1b (isolate Con1), UniProt Q9WMX2); experiment: Inhibition of […] con1 NS5B polymerase assessed as [3H]UTP incorporation into acid insoluble RNA product
Sequence (Q9WMX2 2420-3010 limits assumed): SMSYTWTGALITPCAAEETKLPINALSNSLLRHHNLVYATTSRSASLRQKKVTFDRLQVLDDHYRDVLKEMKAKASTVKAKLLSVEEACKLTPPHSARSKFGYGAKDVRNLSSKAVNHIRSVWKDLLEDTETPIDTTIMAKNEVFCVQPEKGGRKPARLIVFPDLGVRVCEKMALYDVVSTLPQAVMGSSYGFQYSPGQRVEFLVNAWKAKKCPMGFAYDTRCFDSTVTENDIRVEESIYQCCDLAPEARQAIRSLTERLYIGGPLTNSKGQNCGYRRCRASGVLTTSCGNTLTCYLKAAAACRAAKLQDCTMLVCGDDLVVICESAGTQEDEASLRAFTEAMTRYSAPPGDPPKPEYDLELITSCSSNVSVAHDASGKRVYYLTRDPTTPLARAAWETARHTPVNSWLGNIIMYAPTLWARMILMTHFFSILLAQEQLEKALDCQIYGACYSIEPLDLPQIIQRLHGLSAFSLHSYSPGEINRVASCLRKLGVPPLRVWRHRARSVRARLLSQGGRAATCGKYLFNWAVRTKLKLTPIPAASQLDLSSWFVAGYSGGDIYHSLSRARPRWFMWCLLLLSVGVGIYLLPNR
measurement.label: IC50 (nM)

[
  {
    "molecule": "Cc1cc(CN2C(=O)C(C3NS(=O)(=O)c4c(C=NS(N)(=O)=O)cccc43)C(=O)[C@@H]2C(C)(C)C)ccc1F (stereo partly specified)",
    "IC50 [nM]": 3
  },
  {
    "molecule": "Cc1cc(CN2C(=O)C(=C3NS(=O)(=O)c4c(CN(C)S(C)(=O)=O)cccc43)C(=O)[C@@H]2C(C)(C)C)ccc1F",
    "IC50 [nM]": 5
  },
  {
    "molecule": "CC(C)(C)[C@H]1C(=O)C(=C2NS(=O)(=O)c3c(NS(C)(=O)=O)cccc32)C(=O)N1Cc1ccc(F)cc1",
    "IC50 [nM]": 5
  },
  {
    "molecule": "Cc1cc(CN2C(=O)C(=C3NS(=O)(=O)c4c(CNS(C)(=O)=O)cccc43)C(=O)[C@@H]2C(C)(C)C)ccc1F",
    "IC50 [nM]": 4
  },
  {
    "molecule": "CC(C)(C)[C@H]1C(=O)C(C2NS(=O)(=O)c3c(C=NS(N)(=O)=O)cccc32)C(=O)N1Cc1ccc(F)cc1 (stereo partly specified)",
    "IC50 [nM]": 3
  },
  {
    "molecule": "CC(C)(C)[C@H]1C(=O)C(=C2NS(=O)(=O)c3c(CCS(C)(=O)=O)cccc32)C(=O)N1Cc1ccc(F)cc1",
    "IC50 [nM]": 4
  }
]
